Target: recombinant RORγ Ligand Binding Domain (LBD) protein (Homo sapiens (Human))
Test: Radio-Ligand RORγ Binding Assay (Assay 1)
Settings: competition with 25-hydroxy [26,27-3H]-cholesterol, SPA
Experimental: Radio-Ligand RORγ Binding Assay (Assay 1) Compounds described herein were tested for ability to bind to RORγ in a cell-free competition assay with commercially available radio-ligand (RL), 25-hydroxy [26,27-^3H]-cholesterol (PerkinElmer, Cat. # NET674250UC), for a ligand binding site on a recombinant RORγ Ligand Binding Domain (LBD) protein expressed as a 6×His-Glutathione-S-Transferase (GST) fusion. […] SPA signal for tritium beta radiation was registered on PerkinElmer Microbeta plate reader. […]
assayReadout: Ki

// worked examples, Ki included
| compound | Ki |
| --- | --- |
| CCn1c(C[C@H]2CC[C@@H](C(F)(F)F)CC2)cc2cc(C(=O)N[C@@H](CO)c3ccc(S(=O)(=O)CC)cc3)ccc21 [IN-16.2] | < 100 nM |
| CCn1c(C[C@H]2CC[C@@H](C(F)(F)F)CC2)cc2cc(C(=O)NCc3ccc(S(=O)(=O)CC)cc3)ccc21 [IN-17.2] | < 100 nM |

Attention now turns to another entry.
// returns reported Ki for input CCn1c(C[C@H]2CC[C@@H](C(F)(F)F)CC2)cc2cc(C(=O)NCc3ccc(S(=O)(=O)CC)cn3)ccc21 [IN-15.2] < 100 nM

* * *

molecular target: full-length RORγt in Jurkat cells (Homo sapiens (Human)); assay: RORγt 5×RORE Assay in Jurkat Cells (Assay 2); format: cell-based; conditions: RORγt 5×RORE Nanoluc luciferase reporter
Sequence (P51449 other isoform, or with tags, fused parts or gaps): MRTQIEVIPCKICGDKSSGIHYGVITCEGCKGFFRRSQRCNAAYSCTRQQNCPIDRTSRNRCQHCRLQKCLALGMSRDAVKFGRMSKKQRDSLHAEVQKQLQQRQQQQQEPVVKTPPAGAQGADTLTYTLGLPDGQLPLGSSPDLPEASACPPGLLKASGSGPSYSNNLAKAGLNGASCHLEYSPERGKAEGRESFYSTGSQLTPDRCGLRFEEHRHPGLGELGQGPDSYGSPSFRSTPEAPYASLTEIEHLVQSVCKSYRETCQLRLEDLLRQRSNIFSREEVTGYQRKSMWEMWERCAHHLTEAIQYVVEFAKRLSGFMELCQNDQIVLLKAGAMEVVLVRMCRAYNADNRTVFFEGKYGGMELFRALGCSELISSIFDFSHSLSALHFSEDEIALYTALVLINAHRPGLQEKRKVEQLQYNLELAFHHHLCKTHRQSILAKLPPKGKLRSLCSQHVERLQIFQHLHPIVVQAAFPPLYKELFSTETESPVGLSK
assayReadout: IC50

Some compounds with known IC50 results, for comparison:
| compound | IC50 |
| --- | --- |
| CCS(=O)(=O)c1ccc([C@H](CO)NC(=O)c2ccc3c(c2)nc(C(=O)c2ccc(C(F)(F)F)cc2)n3C2CC2)cc1 [BE-61] | < 100 nM |
| CCn1c(C[C@H]2CC[C@@H](C(F)(F)F)CC2)cc2cc(C(=O)NCc3ccc(S(=O)(=O)CC)cc3)ccc21 [IN-17.2] | > 1000 nM |
| CCS(=O)(=O)c1ccc([C@@H](COC(N)=O)NC(=O)c2ccc3c(c2)nc(C[C@H]2CC[C@H](C(F)(F)F)CC2)n3C2CC2)cc1 [BE-67] | < 100 nM |

Need IC50 of CCn1c(C[C@H]2CC[C@@H](C(F)(F)F)CC2)cc2cc(C(=O)NCc3ccc(S(=O)(=O)CC)cn3)ccc21 [IN-15.2] , thanks. > 1000 nM

Field request: IC50 | item: CCS(=O)(=O)c1ccc([C@H](COC(N)=O)NC(=O)c2ccc3c(c2)nc(C[C@H]2CC[C@H](C(F)(F)F)CC2)n3C2CC2)cc1 [BE-66] < 100 nM

Give the measured IC50 of CCn1c(C[C@H]2CC[C@@H](C(F)(F)F)CC2)cc2cc(C(=O)N[C@@H](CO)c3ccc(S(=O)(=O)CC)cc3)ccc21 [IN-16.2] . > 1000 nM

* * *

molecular target: recombinant RORγ Ligand Binding Domain (LBD) protein (Homo sapiens (Human), UniProt P51449); experiment: Radio-Ligand RORγ Binding Assay (Assay 1); conditions: competition with 25-hydroxy [26,27-3H]-cholesterol, SPA
Sequence (P51449 269-508): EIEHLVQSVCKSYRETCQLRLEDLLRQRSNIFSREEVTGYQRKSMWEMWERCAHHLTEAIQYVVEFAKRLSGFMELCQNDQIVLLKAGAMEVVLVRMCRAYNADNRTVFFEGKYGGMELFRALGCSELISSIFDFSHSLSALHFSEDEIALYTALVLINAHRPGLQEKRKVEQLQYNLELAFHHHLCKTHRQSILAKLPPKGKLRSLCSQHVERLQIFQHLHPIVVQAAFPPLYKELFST
Known Ki of a selection of compounds

// below: answered compounds
| compound | Ki |
| --- | --- |
| CCS(=O)(=O)c1ccc([C@@H](COC(N)=O)NC(=O)c2ccc3c(c2)nc(C[C@H]2CC[C@H](C(F)(F)F)CC2)n3C2CC2)cc1 [BE-67] | < 100 nM |
| CCS(=O)(=O)c1ccc([C@H](CO)NC(=O)c2ccc3c(c2)nc(C(=O)c2ccc(C(F)(F)F)cc2)n3C2CC2)cc1 [BE-61] | < 100 nM |

Next compound, please.
What Ki value was documented for this compound, CCS(=O)(=O)c1ccc([C@H](COC(N)=O)NC(=O)c2ccc3c(c2)nc(C[C@H]2CC[C@H](C(F)(F)F)CC2)n3C2CC2)cc1 [BE-66] ? < 100 nM

The values you see were collected from patent US10829448B2.
